Target: Troponin I, cardiac muscle (Homo sapiens) + Troponin T, cardiac muscle (Homo sapiens) + Troponin C, slow skeletal and cardiac muscles (Homo sapiens) (UniProt P19429+P45379+P63316)
Assay: cardiac RTF calcium sensitivity activators, confirmation, biochemical, IANBD-TnC fluorescence, triplicate (AID 504383);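 further: 0% = DMSO at 0.472 mM calcium and 100% = DMSO at 2.9 mM calcium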
Details: IANBD-labeled cardiac RTF, Ca2+ sensitivity fluorescence; at 7.2 µM; stronger effect = higher value; scaled from EC20 to saturating calcium; tested at EC20 calcium, 0.472 mM
In all, about 2,500 compounds went through this assay and about 1,200 (48%) were called active. The set was probably picked from earlier hits. The list shows a part of the results.
Test readout: activation

> print(dat)
                                compound  test.readout          result
1  CN(C)c1ccc(N=Cc2nc(-c3ccccc3)oc2O)cc1    activation  37.2% (active)

Need activation of `CC1(C)CC(=O)c2sc(NC(=O)Cc3cccs3)nc2C1` , thanks.
4.44% (inactive)

Need activation of CC1CCC(C(C)C)C(OC(=O)Cn2c(-c3ccccc3)[n+](C)c3ccccc32)C1 (stereo not given) , thanks.
10.7% (inactive)

Need activation of `Cc1ccc(-n2c(C)cc(C(=O)COC(=O)c3ccc[nH]c3=O)c2C)cc1` , thanks.
6.02% (inactive)

Need activation of `CS/C(=N\S(=O)(=O)c1cccs1)Nc1cccc(Cl)c1C` , thanks.
61.5% (active)

Need activation of `CCOC(=O)C(CCCCCCC(NC(C)=O)(C(=O)OCC)C(=O)OCC)(NC(C)=O)C(=O)OCC` , thanks.
9.57% (inactive)

Need activation of Cc1oc(-c2cc3c(cc2Cl)OCO3)nc1CN1CCCC(C(=O)N2CCOCC2)C1 (stereo not given) , thanks.
447% (active)

Need activation of `CCOc1ccc(NC(=O)c2cccc(OC(=S)N3CCOCC3)c2)cc1` , thanks.
3.8% (inactive)

Need activation of `COCCn1c(C)cc(C(=O)COC(=O)c2ccc(Cl)c(S(N)(=O)=O)c2)c1C` , thanks.
13% (active)

Need activation of `O=S(=O)(/C=C/c1ccccc1)N1CCc2ccccc2C1` , thanks.
11.1% (inactive)

* * *

Target: Troponin I, cardiac muscle (Homo sapiens) + Troponin T, cardiac muscle (Homo sapiens) + Troponin C, slow skeletal and cardiac muscles (Homo sapiens) (UniProt P19429+P45379+P63316)
Test: cardiac RTF calcium sensitivity activators, confirmation, biochemical, IANBD-TnC fluorescence, triplicate (AID 504383);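 further: 0% = DMSO at 0.472 mM calcium and 100% = DMSO at 2.9 mM calcium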
Conditions: IANBD-labeled cardiac RTF, Ca2+ sensitivity fluorescence; at 7.2 µM; scaled from EC20 to saturating calcium; tested at EC20 calcium, 0.472 mM
Among all 2,500 compounds or so, about 1,200 (48%) were called active.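 The calls were made as follows: active = mean activation above the low control average plus 3 SD, as set in the primary screen (cut at about 12% in these data); inactive = the rest.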 So high a share suggests a set chosen from earlier hits. Some of the results follow.
Reply using exactly one outcome from active, inactive

> print(dat)
                          molecule  class.name
1  O/C(=C\c1nc2ccccc2[nH]1)c1cccs1    inactive

What is the recorded call for this molecule in the test? `O=C1c2ccccc2-c2onc3ccc(Oc4ccccc4)c1c23`
inactive

What is the recorded call for this molecule in the test? `CCCc1cc(=O)[nH]c(SCC)n1`
active

What is the recorded call for this molecule in the test? COc1ccc(C)cc1NC(=O)C12CCC(C)(C(=O)O1)C2(C)C (stereo unspecified)
active

What is the recorded call for this molecule in the test? `CC(C)C(=O)COc1c2occc2cc2ccc(=O)oc12`
inactive

What is the recorded call for this molecule in the test? `CCCc1cc(=O)oc2c3c(cc(OCC(=O)N[C@@H](CSC)C(=O)O)c12)OC(C)(C)CC3`
active

* * *

Molecular target: Troponin I, cardiac muscle (Homo sapiens) + Troponin T, cardiac muscle (Homo sapiens) + Troponin C, slow skeletal and cardiac muscles (Homo sapiens) (UniProt P19429+P45379+P63316)
Assay: cardiac RTF calcium sensitivity activators, confirmation, biochemical, IANBD-TnC fluorescence, triplicate (AID 504383);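 further: 0% = DMSO at 0.472 mM calcium and 100% = DMSO at 2.9 mM calcium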
Conditions: IANBD-labeled cardiac RTF, Ca2+ sensitivity fluorescence; at 7.2 µM; scaled from EC20 to saturating calcium; tested at EC20 calcium, 0.472 mM
In all, about 2,500 compounds went through this assay and about 1,200 (48%) were called active.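 The calls were made as follows: active = mean activation above the low control average plus 3 SD, as set in the primary screen (cut at about 12% in these data); inactive = the rest.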 So high a share suggests a set chosen from earlier hits. Some of the results follow.
Reply using exactly one outcome from TRUE (active), FALSE (inactive)

Solved entries (count: 5):
> print(dat)
                                chem.smiles  class.name
1  O=C(CN1CCN(c2ccccc2)CC1)Nc1cccc(C(F)(F)F)c1       FALSE
2  Nc1cccc(N2C(=O)c3cccc4c(N)ccc(c34)C2=O)c1       FALSE
3   Cc1ccc(/C=C2/NC(=O)N(Cc3ccccc3F)C2=O)s1       FALSE
4  Cc1cc(/C=C2/NC(=O)N(Cc3ccccc3F)C2=O)c(C)n1C        TRUE
5                  C#CCN1c2ccccc2Sc2cccnc21        TRUE

What is the recorded call for this molecule in the test? `CC(C)CCN1C(=O)c2cccc3c(N)ccc(c23)C1=O`
TRUE

* * *

Biological target: Troponin I, cardiac muscle (Homo sapiens) + Troponin T, cardiac muscle (Homo sapiens) + Troponin C, slow skeletal and cardiac muscles (Homo sapiens) (UniProt P19429+P45379+P63316)
Experiment: cardiac RTF calcium sensitivity activators, confirmation, biochemical, IANBD-TnC fluorescence, triplicate (AID 504383);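 further: 0% = DMSO at 0.472 mM calcium and 100% = DMSO at 2.9 mM calcium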
Details: IANBD-labeled cardiac RTF, Ca2+ sensitivity fluorescence; at 7.2 µM; stronger effect = higher value; scaled from EC20 to saturating calcium; tested at EC20 calcium, 0.472 mM
The campaign covered roughly 2,500 compounds. About 1,200 (48%) were called active. The set was probably picked from earlier hits. The list shows a part of the results.
# if value of activation reaches 9%, tag satisfied; if it stays below, tag not satisfied

Solved entries (count: 4):
> print(dat)
                                chem.smiles     class.name
1  CCN(CC)c1ccc(/C=N/OCC(=O)Nc2cccc(C)c2)cc1      satisfied
2  Cc1ccnc(N/C=C(\C#N)c2nc(-c3cccc(Br)c3)cs2)c1      satisfied
3              Cc1ccnc(NC(=O)c2ccc(Br)s2)c1  not satisfied
4   COc1ccc(CC(=O)NCc2csc(-c3cccs3)n2)cc1OC  not satisfied

Hello, I need to know if `CC(C)(C)NC(=O)NC(=O)Cn1ccsc1=N` has measured activation not below 9%. Thanks!
satisfied

* * *

Molecular target: Troponin I, cardiac muscle (Homo sapiens) + Troponin T, cardiac muscle (Homo sapiens) + Troponin C, slow skeletal and cardiac muscles (Homo sapiens) (UniProt P19429+P45379+P63316)
Assay: cardiac RTF calcium sensitivity activators, confirmation, biochemical, IANBD-TnC fluorescence, triplicate (AID 504383);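 further: 0% = DMSO at 0.472 mM calcium and 100% = DMSO at 2.9 mM calcium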
Settings: IANBD-labeled cardiac RTF, Ca2+ sensitivity fluorescence; at 7.2 µM; stronger effect = higher value; scaled from EC20 to saturating calcium; tested at EC20 calcium, 0.472 mM
Screen size: about 2,500 compounds; about 1,200 (48%) were called active. The set was probably picked from earlier hits. This is one part of the list.
Test readout: activation (%)
Entry rule: numbers only, all in %.

Some compounds with recorded activation:
> print(dat)
                                   compound  measured.number
1         CCn1c(Cc2ccccc2)nnc1SCC(=O)OC(C)C             11.8
2  Cc1cccn2c(=O)c(/C=C3\SC(=S)N(CC(C)C)C3=O)c(NCCCOC(C)C)nc12              111
3  Cc1cc(/C=C2\SC(=S)N(Cc3ccco3)C2=O)c(C)n1-c1cccnc1             48.4
4   Cc1ccc(N=C2NC(=O)/C(=C/c3cccnc3)S2)cc1C             3.85
5  CC(=O)Nc1cccc(NC(=O)CSc2nnc(Cc3cccn3C)n2CCc2ccccc2)c1             2.51
6  COc1ccc(N2CCN(C(=O)c3ccc(OCC4CCCO4)cc3)CC2)cc1 (stereo not given)               71

Need activation of `COc1ccc(-n2c(C)cc(/C=C3\SC(=S)N(Cc4ccco4)C3=O)c2C)cc1` , thanks.
239

Need activation of `Cc1cccn2c(=O)c(/C=C3\SC(=S)NC3=O)c(NCCCN3CCOCC3)nc12` , thanks.
63.9

Need activation of `COc1ccc(O)c(/C=C2/SC(=S)N(Cc3ccccc3)C2=O)c1` , thanks.
0.43

Need activation of `Cc1cc(/C=C2\SC(=S)N(Cc3ccco3)C2=O)c(C)n1-c1ccccc1` , thanks.
17.4

* * *

Target: Troponin I, cardiac muscle (Homo sapiens) + Troponin T, cardiac muscle (Homo sapiens) + Troponin C, slow skeletal and cardiac muscles (Homo sapiens) (UniProt P19429+P45379+P63316)
Assay: cardiac RTF calcium sensitivity activators, confirmation, biochemical, IANBD-TnC fluorescence, triplicate (AID 504383);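 further: 0% = DMSO at 0.472 mM calcium and 100% = DMSO at 2.9 mM calcium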
Conditions: IANBD-labeled cardiac RTF, Ca2+ sensitivity fluorescence; at 7.2 µM; stronger effect = higher value; scaled from EC20 to saturating calcium; tested at EC20 calcium, 0.472 mM
About 1,200 (48%) of roughly 2,500 compounds were called active. The set was probably picked from earlier hits. Some of the results follow.
Test readout: activation (%)
Entry rule: numbers only, all in %.

Some molecules with recorded activation:
> print(dat)
                                   molecule  measured.number
1  Cc1ccc(NS(=O)(=O)c2ccc(C(=O)N3CCN(c4ncccn4)CC3)cc2)cc1             3.55
2         Cc1ccc(-c2noc(-c3c(C)noc3C)n2)cc1             9.16
3  CN(C)c1ccc(/C=C2\SC(=O)N(CCc3nnc(N)s3)C2=O)cc1             5.55

Need activation of `O=C(Nc1ccc(S(=O)(=O)Nc2ncccn2)cc1)c1nn(Cc2ccccc2)c(=O)c2ccccc12` , thanks.
736

Need activation of `CC(C)c1ccc(N2C(=O)/C(=C/N(C)C)SC2=S)cc1` , thanks.
57.7

Need activation of `CN(C)/C=C1\SC(=S)N(c2ccc(Br)cc2)C1=O` , thanks.
75.9
